Target: T1, cynomolgus monkey CD3 E&D complex protein (Sino Biological Inc., CT032-00323H) (cynomolgus monkey, UniProt Q95LI5 22-117; Q95LI8 22-105)
T1 construct: bought heterodimer
T1 sequence (Q95LI5 22-117, chain 1 of 2): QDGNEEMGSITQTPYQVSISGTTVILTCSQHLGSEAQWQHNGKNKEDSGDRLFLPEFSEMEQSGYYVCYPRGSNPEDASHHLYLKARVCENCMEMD
T1 sequence (Q95LI8 22-105, chain 2 of 2): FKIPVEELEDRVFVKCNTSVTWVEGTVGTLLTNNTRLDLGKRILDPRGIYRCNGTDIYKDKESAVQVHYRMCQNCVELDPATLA
Test: BLI, antibody on sensor
Experimental: 100 μl SD buffer, various antibodies, human CD3 E&D complex protein (Sino Biological Inc., CT026H0323H), and cynomolgus monkey CD3 E&D complex protein (Sino Biological Inc., CT032-00323H) were added into 96-well black polystyrene semi-quantitative micro-well plate (Greiner, 675076) respectively. Fortebio Octet Red 96 was used for detection, and the sensor position was selected according to the sample position. […]
ASSAY READOUT: kon (M⁻¹ s⁻¹)
A number alone suffices; assume M⁻¹ s⁻¹.

Task item: Please indicate kon recorded for hzsp34.40 (antibody, human IgG1, kappa, L234A L235A, V domains shown, IgG1 L234A L235A, kappa) VH: EVQLVESGGGLVQPGGSLKLSCAASGFTFNTYAMNWVRQASGKGLEWVARIRSKYNNYATYYADSVKDRFTISRDDSKSTLYLQMNSLKTEDTAVYYCARHGNFGQSYVSWFAYWGQGTTVTVSS VL: EIVMTQSPATLSVSPGERATLSCRSSTGAVTTSNYANWVQQKPGQAPRGLIGGTNKRAPGVPARFSGSGSGTEFTLTISSLQSEDFAVYYCALWYSNLWVFGQGTKLTVLR
Reply: 196000
